# System: Wolbachia pipientis
# Assay Summary: Anti-Wolbachia Cell-Based Screen
# Format: functional
# Design: scale not given: in the data most compounds retested in dose-response had high values
# Settings: 5 µM
The whole screen tested about 48,000 compounds, of which about 13,000 (27%) showed an effect of 50% or more. The list shows a part of the results.
Measurement Kind: Percent Effect (%)
Give bare numbers, in %.

- Compound: "CC(NC(=O)Nc1cc(F)cc(F)c1)c1nc[nH]n1 (stereo unspecified)"
  Readout Number: -15.42
- Compound: "O=C(Nc1cc(-c2ccccc2)on1)N1CCN(CCO)CC1"
  Readout Number: -8.087
- Compound: "COc1cc(F)c(S(=O)(=O)N2c3ncccc3NC(=O)C2C)cc1OC (stereo unspecified)"
  Readout Number: -16.51

Hey, can you go through the list below and give me Percent Effect for every item?
1. Cc1ccc(C(=O)NCC(O)c2ccc(F)c(F)c2)c(=O)[nH]1 (stereo unspecified)
2. CCCN1C[C@H]2CC[C@@H]1CN(Cc1ccc(-n3cccn3)cc1)C2
3. N#Cc1ccc(CN2CCCCC2Cn2cncn2)c(F)c1 (stereo unspecified)

-52.3
12.23
-2.215

====

# System: Wolbachia pipientis
# Assay Summary: Anti-Wolbachia Cell-Based Screen
# Format: functional
# Set-up: scale not given: in the data most compounds retested in dose-response had high values
# Settings: 5 µM
Screen size: about 48,000 compounds; about 13,000 (27%) showed an effect of 50% or more. The list shows a part of the results.
Measurement Kind: Percent Effect (%)
Give bare numbers, in %.

Observe how each entry below is paired with its result.
- Molecule: "Cc1cccc(N2CCC(N3CCC4(CN(C)C(=O)O4)C3)CC2)c1C (centres undefined)"
  Percent Effect (%): 10.35
- Molecule: "Cc1ccc(-c2nc(CNCC3CN(C)CCO3)co2)c(C)c1 (centres undefined)"
  Percent Effect (%): 99.3

Hey, can you go through the list below and give me Percent Effect for every item?
1. CN1CCOC(CNCc2coc(-c3ccccc3Cl)n2)C1 (centres undefined)
2. C1CC(CN2CCCCC2C2OCCO2)C1 (centres undefined)
3. CS(=O)(=O)c1ccc(-c2cc(O)cc(CCC3CCCCN3)c2)cc1 (centres undefined)
4. COc1ccnc(N2CCN(C(=O)c3cnn(C)c3C3CC3)CC2)n1
5. c1ccc2c(c1)OCCCC2NCc1nnc2n1CCCCC2 (centres undefined)

[105.3, 19.65, -20.81, 4.417, -26]

====

# Test system: Wolbachia pipientis
# Assay Summary: Anti-Wolbachia Cell-Based Screen
# Format: functional
# Set-up: scale not given: in the data most compounds retested in dose-response had high values
# Settings: 5 µM
Screen size: about 48,000 compounds; about 13,000 (27%) showed an effect of 50% or more. The list shows a part of the results.
Measurement Kind: Percent Effect (%)
One number for each entry, in %.

Observe how each entry below is paired with its result.
- Compound: "CCCc1cc(C(=O)N(CC)Cc2ccncc2)[nH]n1"
  Subject Of Test: "Wolbachia pipientis"
  Value Units: "%"
  Percent Effect: -8.767
- Compound: "O=C(C1CCC1)N1CCC(C2CCN(Cc3ccc(Cl)cc3)C2)CC1 (stereo not given)"
  Subject Of Test: "Wolbachia pipientis"
  Value Units: "%"
  Percent Effect: 11.03
- Compound: "CCC(CNC(=O)Nc1cnn(CC)c1)N1CCCC1 (stereo not given)"
  Subject Of Test: "Wolbachia pipientis"
  Value Units: "%"
  Percent Effect: -8.538
- Compound: "NC(=O)Cn1cc(NC(=O)NCC2CCN(c3ccccc3)C2)cn1 (stereo not given)"
  Subject Of Test: "Wolbachia pipientis"
  Value Units: "%"
  Percent Effect: 6.849

Hey, can you go through the list below and give me Percent Effect for every item?
1. Cc1ccc(Cl)c(CN2CCC3(CC2)C(C(=O)O)CC(=O)N3C)c1F (stereo not given)
2. NC(=O)C1(CCCc2ccccn2)CCCN(CCO)C1 (stereo not given)
3. CC(Cn1cccn1)NC(=O)NCCN1CCc2ccccc2C1 (stereo not given)
4. COCCN1CCCC(CCCc2ccccn2)(C(N)=O)C1 (stereo not given)
5. COCCC1(C(=O)O)CCCN(CCc2ccccc2)C1 (stereo not given)
6. NC(=O)C1(CCCc2cccnc2)CCCN(c2ncccn2)C1 (stereo not given)
7. O=C(NCCc1ccccn1)N1CCSC2(CCCCC2)C1
8. O=C(C1CCCC1)N1CCC(C2CCN(Cc3ccc(Cl)cc3)C2)CC1 (stereo not given)

1. 1.712
2. 112.7
3. 1.571
4. 100.6
5. -4.304
6. -4.242
7. 2.458
8. 14.43

Hey, can you go through the list below and give me Percent Effect for every item?
1. O=C(NCC(O)CN1CCc2ccccc2C1)Nc1cccnc1 (stereo not given)
2. COCCCC1(CO)CCCN(CCc2ccccn2)C1 (stereo not given)
3. CCn1cc(NC(=O)NCCN2CCc3ccccc3C2)cn1
4. NC(=O)Cn1cc(NC(=O)NCCN2CCc3ccccc3C2)cn1
5. CCC(CNC(=O)c1ccccc1Br)N1CCc2ccccc2C1 (stereo not given)
6. CC(C)CNC(=O)c1ccc(NC(=O)NCC2CC2)cc1Cl
7. CCCOc1ccc(NC(=O)NCCC(=O)N(C)C)cc1Cl
8. CSCCN1CCN(c2nc(N)ncc2C)CC1

1.395
15.21
123.6
93.55
-9.585
-12.02
-12.35
-15.55

These data points were gathered from ChEMBL document CHEMBL3988442.
